- assayName: Half life in Sprague-Dawley rat at 5 mg/kg, iv administered as single dose by LC-MS/MS analysis
- Type: ADME, organism-based
- conditionLabel: in vivo
property: half-life (min)
The figure you give is taken to be in min; do not add the unit.

Entry "Cl.Cn1c(-c2cc3c(s2)CNCC3)nc2c(C(N)=O)cc(F)cc21" has what half-life? 53.4

---

- assayName: Cmax in Sprague-Dawley rat at 10 mg/kg, po administered as single dose by LC-MS/MS analysis
- Type: ADME, organism-based
- Design: dose 10 mg/kg, route oral
- conditionLabel: in vivo
property: Cmax
In your response, the unit should come after the numeric value.

Entry "Cl.Cn1c(-c2cc3c(s2)CNCC3)nc2c(C(N)=O)cc(F)cc21" has what Cmax? 61.2 ng/mL
